- Tested on: PC-3 prostate
- experiment: NCI-60 one-dose screen, 48 h (100 = growth as untreated, 0 = no growth, -100 = all killed)
- condition context: 10 µM unless noted
Compounds without any hit were thinned out: in the full panel of roughly 83,000, 20% have a hit.
readout kind: growth (%)
Give bare numbers, in %.

| chemical structure | test system | growth / % |
| --- | --- | --- |
| CCOC(=O)c1c(C)nc2ccccc2c1/C=C/c1ccccc1 | PC-3 prostate | 69.9 |

Batch: growth for all items listed.
1. CN1CCN(c2ccc(NC(=O)c3cncnc3Nc3ccc(OCc4cccc(F)c4)c(Cl)c3)cc2)CC1
2. C=C(C)[C@@H]1CC[C@]2(C(N)=O)CC[C@]3(C)[C@H](CC[C@@H]4[C@@]5(C)CC[C@H](OCCC#N)C(C)(C)[C@@H]5CC[C@]43C)[C@@H]12

OUTPUT:
1: 68.1; 2: 68.8

====

- Tested on: SNB-19 CNS
- experiment: NCI-60 one-dose screen, 48 h (100 = growth as untreated, 0 = no growth, -100 = all killed)
- condition context: 10 µM unless noted
About 83,000 compounds went through this panel and 20% of them were active in at least one assay; those are over-represented in the sample as a whole.
readout kind: growth (%)
Give bare numbers, in %.

| compound | unit spec | growth |
| --- | --- | --- |
| C/C=C(\C)C(=O)N[C@H]1C(O)C[C@]2(C)C3CC[C@@]4(C)C(CC[C@@H]4C(C)N(C)C)C3CCC2C1O (stereo partly drawn) | % | 104 |
| CCOc1c(OC)cc2c(c1O)C(=O)N[C@@H]1[C@@H](O)[C@@H](O)[C@H](O)C[C@@H]21 | % | 99 |

Now let's try a different one.
growth for Cc1nnc(-c2ccc3c(c2)nc(/C=C/c2ccccc2)n3C2CCCCC2)o1 is 102

====

- Test system: T-47D breast
- experiment: NCI-60 one-dose screen, 48 h
- condition context: 10 µM unless noted
Compounds without any hit were thinned out: in the full panel of roughly 83,000, 20% have a hit. Activity calls are given as the source filed them. How the source made its calls: active means growth percent below 10; inactive means the rest.
Your response should consist of one outcome taken from 1 = active, 0 = inactive

| compound | discrete label |
| --- | --- |
| O=S(=O)(Nc1cc(Sc2cccc3cccnc23)c(O)c2ccccc12)c1ccccc1 | 1 |

// switching to the query compound
INPUT: Could you check what this test reported for CC(=O)/C(=C/c1ccc([N+](=O)[O-])cc1)C(=O)c1ccccc1 ?
OUTPUT: 0

====

- Test system: NCI-H226 lung
- experiment: NCI-60 one-dose screen, 48 h (100 = growth as untreated, 0 = no growth, -100 = all killed)
- condition context: 10 µM unless noted
Compounds without any hit were thinned out: in the full panel of roughly 83,000, 20% have a hit.
Consider the following molecules; for each one, report its growth.
Answers are plain numbers, in %.

| chemical structure | reported result |
| --- | --- |
| CC(=O)/C(=C/c1ccc([N+](=O)[O-])cc1)C(=O)c1ccccc1 | 81.5 |
| O=C(Cc1ccc(NC(=O)c2cccc(Cl)c2)cc1)NCc1ccccc1 | 87 |
| COc1ccc(C(=O)/C=C/c2ccc(N3CCCCC3)cc2)cc1OC | 72.7 |

Now let's try a different one.
Form field, growth with NCI-H226 lung, item O=C(O)[C@@H](Cc1ccc2ccccc2c1)NC(=O)n1c2ccccc2c2ccccc21 : 85.9

====

- Tested on: SN12C renal
- experiment: NCI-60 one-dose screen, 48 h (100 = growth as untreated, 0 = no growth, -100 = all killed)
- condition context: 10 µM unless noted
The panel holds about 83,000 compounds, 20% with a hit somewhere; the sample as a whole holds those more often. Activity calls are given as the source filed them. How the source made its calls: active means growth percent below 10; inactive means the rest.
readout kind: growth

| compound | readout kind | reported result |
| --- | --- | --- |
| N#Cc1cncc(-c2ccc3ncnc(Nc4cccc(Cl)c4)c3c2)c1 | growth | 82.9% (inactive) |

Batch: growth for all items listed.
1. O=C(O)c1ccc(-c2ccc(/C=N/Nc3nc(Nc4ccccc4)nc(N4CCCCC4)n3)o2)cc1
2. Cc1ccc(-c2nc(-c3cn(C)c4ncccc34)cs2)cc1
3. CCCCNc1nnc2n(Cc3ccccc3)c(=O)c3c4c(sc3n12)CCCC4
4. COC(=O)CCC/C=C\C[C@H]1C=CC(=O)/C1=C/C[C@@H](O)C/C=C\CC(F)(F)F
5. COc1ccc(C2=NN(C(C)=O)C(c3cn(-c4ccccc4)nc3-c3ccc(Cl)cc3)C2)cc1 (stereo unspecified)
6. C=C(c1ccc(OC)c(/C=C/C(=O)c2ccc3c(c2)OCO3)c1)c1cc(OC)c(OC)c(OC)c1
7. Cn1c2c(c3ccc(Cl)c(Cl)c31)C(C#N)C(C)(C)NC2=O (stereo unspecified)

OUTPUT:
66.8% (inactive)
-13.1% [100 µM] (active)
46% (inactive)
-6.2% (active)
32.8% (inactive)
8.55% (active)
93.6% (inactive)

Batch: growth for all items listed.
1. CN(C)c1ccc(-c2ccc3c(c2)c(-c2ccccc2)nc(=O)n3C)cn1
2. Cc1ccc2nc(/C(C#N)=C(/CCCO)NC(Cc3ccccc3)C(=O)OCc3ccccc3)[nH]c(=O)c2c1 (stereo unspecified)
3. Cc1ccc(/C=C/C(=O)c2ccc(-n3cc(CN4CCN(c5cc6c(cc5F)c(=O)c(C(=O)O)cn6C5CC5)CC4)nn3)cc2)cc1
4. CCN1C(=O)N(CC)C2Nn3c(s/c(=C\c4ccccc4Br)c3=O)=NC21 (stereo unspecified)
5. COc1ccc(/C=C/c2ccc3ccccc3n2)c(OC)c1
6. CN1CCN(CCOc2ccc(-c3cnc4c(-c5cccc(F)c5F)cnn4c3)cc2)CC1

OUTPUT:
["42.6% (inactive)", "103% (inactive)", "67.7% (inactive)", "35.4% (inactive)", "80.1% (inactive)", "90.3% (inactive)"]

Batch: growth for all items listed.
1. Clc1c(Cl)[n+](Cc2ccc3ccccc3c2)cn1Cc1ccc2ccccc2c1
2. C=CC(=O)Nc1ccc(Oc2nccc(Nc3nnc(-c4ccc(C)cc4)s3)n2)cc1
3. Cc1cc(Nc2ccc(C(=O)N3CCCC3)cc2)nc(NCCCNc2ccnc3cc(Cl)ccc23)n1

OUTPUT:
1. 28.1% (inactive)
2. 84% (inactive)
3. 85% (inactive)

====

Consider the following compounds; for each one, report its growth.
- System: NCI-H23 lung
- experiment: NCI-60 one-dose screen, 48 h (100 = growth as untreated, 0 = no growth, -100 = all killed)
- condition context: 10 µM unless noted
Compounds without any hit were thinned out: in the full panel of roughly 83,000, 20% have a hit. The source made the active and inactive calls. Rule for the calls: active = growth percent below 10; inactive = the rest.

| chemical structure | readout kind | reported result |
| --- | --- | --- |
| CC1(C)CC[C@]2(CO)CC[C@]3(C)[C@H](CC[C@@H]4[C@@]5(C)CCCNC(C)(C)[C@@H]5CC[C@]43C)[C@H]2[C@H]1O | growth | 88.1% (inactive) |
| O=[N+]([O-])c1ccc(-c2cn3nc(-c4c[nH]c5ccccc45)sc3n2)cc1 | growth | 88.1% (inactive) |
| Cc1c2cccnc2c(C)c2c1c1cc(CO)ccc1n2C | growth | 30.6% (inactive) |

growth for CCNC(=O)Oc1ccc(/C(=C(/C)Cc2ccc(OC)cc2)c2ccc(OCCN3CCCCC3)cc2)cc1 is 87.7% (inactive)

====

- System: SF-268 CNS
- experiment: NCI-60 one-dose screen, 48 h (100 = growth as untreated, 0 = no growth, -100 = all killed)
- condition context: 10 µM unless noted
The panel holds about 83,000 compounds, 20% with a hit somewhere; the sample as a whole holds those more often.
readout kind: growth (%)
Give bare numbers, in %.

Some solved cases for reference:
| compound | growth [%] |
| --- | --- |
| COc1cc(-c2nc3cc(Cl)c(Cl)cc3[nH]2)ccc1OCC(=O)N=Nc1c(O)[nH]c2ccc(Cl)cc12 | -24.5 |
| Cc1cn(-c2cc(NC(=O)c3cncc(C#Cc4c(N)ncc5ccc(F)cc45)c3)cc(C(F)(F)F)c2)cn1 | 64.6 |
| COc1ccc(C2=NN(C(C)=O)C(c3cn(-c4ccccc4)nc3-c3ccc(Cl)cc3)C2)cc1 (stereo not drawn) | 27.2 |
| C#CCO[C@H]1CC(CC#C)(CC#C)C(=O)[C@@H]2[C@H]1[C@H]1C[C@@H]3[C@@]4(C)CCC[C@@](C)(C(=O)OC)[C@@H]4CC[C@@]23C=C1C(C)C | 92.9 |
| COc1ccc(-c2cc(-c3ccccc3)nc(N3CCN(CCNc4ccnc5cc(Cl)ccc45)CC3)n2)cc1 | -15.1 |
| COC(=O)/C=C1/SC(=Nc2ccc([N+](=O)[O-])cc2)N(CCc2c[nH]c3ccc(O)cc23)C1=O | 43.7 |
| Cc1ccc(S(=O)(=O)Oc2ccc3sc4cccc(NCCN(C)C)c4c(=O)c3c2)cc1 | -82.1 |
| O=C1/C(=C/c2ccccn2)NC(=S)N1c1ccccc1Cl | 83.5 |
| C=C1C(=O)O[C@H]2[C@H]1CC/C(CNC(=O)c1c[nH]c3ccc(F)cc13)=C\CC[C@@]1(C)O[C@@H]21 | 42.8 |
| Cc1cc2c(cc1C)N(C(=O)CCl)CC(=O)N2 | 60.9 |

Batch: growth for all items listed.
1. O=C(NNC(=O)c1ccc(NC(=O)c2ccccn2)cc1)Nc1ccc2ccccc2c1
2. CCOC(=O)c1c(C)nc2ccccc2c1/C=C/c1ccccc1
3. COc1ccc(-c2n[nH]c(=O)c3nc(NC(=S)Nc4ccc(Oc5ccccc5)cc4)sc23)cc1

OUTPUT:
1: 101; 2: 85.4; 3: 102
